Record form. Attribute: Potency. Fill in for each entry.
Test: qHTS of pediatric cancer cell lines to identify multiple opportunities for drug repurposing: Primary screen for BT-37 cells (AID 1347094); further: potency means the concentration at half of the fitted maximal effect
Settings: BT-37 viability, CellTiter-Glo luminescence, 48 h; series mostly up to 57.3 µM
Records with an inconclusive call do not appear. Active and inactive are the calls of the source. The call rests on the fitted dose curve; in most records, active means well fitted cell-killing curve with a large enough effect; inconclusive means small, poorly fitted or top-dose-only effect; inactive means flat fitted curve, though single readings scatter.

| Input Smiles | Potency |
| --- | --- |
| CC(C)CC(=O)Nc1n[nH]c2c1CN(C(=O)C1CCN(C)CC1)C2(C)C | 0.485 µM (active) |
| CN[C@H]1CCc2cc(OC)c(OC)c(OC)c2-c2ccc(OC)c(=O)cc21 | 0.0061 µM (active) |

Now consider a different compound.
Potency for `C1=CCOCc2cc(ccc2OCCN2CCCC2)Nc2nccc(n2)-c2cccc(c2)OCC1` is 12.2 µM (active)

* * *

Test: Quantitative High-Throughput drug screen in 47 multiple myeloma cell lines against the NCATS MIPE library collection: OPM1_PLB cell viability assay (AID 1918989); further: nearly all actives have a fitted effect of over 40% in size
Conditions: CellTiter-Glo, 48 h; series mostly up to 45.8 µM
Results filed as inconclusive are left out. Active and inactive are the calls of the source. The call rests on the fitted dose curve; in most records, active means well fitted cell-killing curve with a large enough effect; inconclusive means small, poorly fitted or top-dose-only effect, or effect the other way; inactive means no such curve, though single readings can be large or run the other way.
Just give me one of these, please: class 1 for active, class 0 for inactive

Completed entries (count: 2):
| Compound | Discrete Label |
| --- | --- |
| O=C(NCCS(=O)(=O)c1ccc(C(F)(F)F)cn1)c1ccc(Cl)cc1 | class 0 |
| COc1cc(-c2nn(C3CCC(N4CCN(C(C)=O)CC4)CC3)c3ncnc(N)c23)ccc1NC(=O)c1cc2ccccc2n1C (stereo not drawn) | class 1 |

Lab log entry: `CC(C)[C@H](C(=O)Nc1ccc(C(=O)NO)cc1)c1ccccc1` — outcome as called in the assay?
class 1

* * *

Test: Quantitative High-Throughput drug screen in 47 multiple myeloma cell lines against the NCATS MIPE library collection: H1112_PLB cell viability assay (AID 1918967; further: nearly all actives have a fitted effect of over 30% in size)
Conditions: H1112 myeloma cells viability, ATP luminescence, 48 h; series mostly up to 45.8 µM
Inconclusive results are not listed. Activity calls are given as the source filed them. The call rests on the fitted dose curve; in most records, active means well fitted cell-killing curve with a large enough effect; inconclusive means small, poorly fitted or top-dose-only effect, or effect the other way; inactive means no such curve, though single readings can be large or run the other way.
Just give me one of these, please: active, inactive

Completed entries (count: 2):
| Compound | Discrete Label |
| --- | --- |
| CCCCN1CCC(CNC(=O)c2c3n(c4ccccc24)CCCO3)CC1 | active |
| O=C(O)C1(Cc2cccc(Nc3nccs3)n2)CCC(Oc2cccc(Cl)c2F)CC1 (stereo not drawn) | inactive |

Lab log entry: C[C@]12CC[C@H](O)CC1=CCC1C2CC[C@]2(C)C(n3cnc4ccccc43)=CCC12 (stereo partly drawn) — outcome as called in the assay?
inactive

* * *

Assay: qHTS of pediatric cancer cell lines to identify multiple opportunities for drug repurposing: Primary screen for NB1643 cells (AID 1347099); further: nearly all actives have a fitted effect of over 50% in size; further: potency means the concentration at half of the fitted maximal effect
Conditions: NB1643 neuroblastoma viability, CellTiter-Glo luminescence, 48 h; series mostly up to 46 µM
Inconclusive results are not listed. Active and inactive are the calls of the source. The call rests on the fitted dose curve; in most records, active means well fitted cell-killing curve with a large enough effect; inconclusive means small, poorly fitted or top-dose-only effect; inactive means no such curve, though single readings can be large or run the other way.
Quantity Name: Potency

See these solved cases before continuing.
| Compound | Potency |
| --- | --- |
| Clc1cccc(-c2nnnn2Cc2cccnc2)c1Cl | inactive |
| Cc1ccc(S(=O)(=O)Nc2cc(Cl)ccc2C(=O)Nc2nc(-c3ccccc3)cs2)cc1 | 3.72 µM (active) |
| CN1c2cc(O)c(N=NC(N)=O)cc2CC1S(=O)(=O)O (configuration not stated) | inactive |
| C[C@@]12O[C@@H](C[C@]1(O)CO)n1c3ccccc3c3c4c(c5c6ccccc6n2c5c31)CNC4=O | 1.66 µM (active) |
| CC1(O)CC(c2nc(-c3ccc4ccc(-c5ccccc5)nc4c3)c3c(N)nccn23)C1 (configuration not stated) | 2.09 µM (active) |

Record Potency per entry; entries follow.
1. O=C(NCCCNc1nc(Nc2cccc(NC(=O)N3CCCC3)c2)ncc1I)c1cccs1
2. O=C(c1ccc(Nc2nccc(-c3cc4ccccc4s3)n2)cc1)N1CCC(N2CCCC2)CC1

["11.8 µM (active)", "11.8 µM (active)"]

This collection of values is drawn from PubChem BioAssay (NCATS).
